Attribution: BigSolDB 2.1

- CONDITION_INFO: in 2-butanone, 313.15 K
ENDPOINT: solubility (mole fraction)

### Prompt Consider the molecule O=Cc1ccc([N+](=O)[O-])cc1 and give its measured solubility (mole fraction).
### Response 0.174

---

- CONDITION_INFO: in n-butanol, 298.15 K
ENDPOINT: solubility (mole fraction)
Answer with a number only.

### Prompt Consider the compound O=Cc1ccc([N+](=O)[O-])cc1 and give its measured solubility (mole fraction).
### Response 0.02

---

- CONDITION_INFO: in ethanol, 298.15 K
ENDPOINT: solubility (mole fraction)
Answer with a number only.

### Prompt Consider the molecule O=Cc1ccc([N+](=O)[O-])cc1 and give its measured solubility (mole fraction).
### Response 0.031
